target entity: MYT1 protein (Homo sapiens (Human), UniProt Q99640)
Sequence (Q99640 whole entry): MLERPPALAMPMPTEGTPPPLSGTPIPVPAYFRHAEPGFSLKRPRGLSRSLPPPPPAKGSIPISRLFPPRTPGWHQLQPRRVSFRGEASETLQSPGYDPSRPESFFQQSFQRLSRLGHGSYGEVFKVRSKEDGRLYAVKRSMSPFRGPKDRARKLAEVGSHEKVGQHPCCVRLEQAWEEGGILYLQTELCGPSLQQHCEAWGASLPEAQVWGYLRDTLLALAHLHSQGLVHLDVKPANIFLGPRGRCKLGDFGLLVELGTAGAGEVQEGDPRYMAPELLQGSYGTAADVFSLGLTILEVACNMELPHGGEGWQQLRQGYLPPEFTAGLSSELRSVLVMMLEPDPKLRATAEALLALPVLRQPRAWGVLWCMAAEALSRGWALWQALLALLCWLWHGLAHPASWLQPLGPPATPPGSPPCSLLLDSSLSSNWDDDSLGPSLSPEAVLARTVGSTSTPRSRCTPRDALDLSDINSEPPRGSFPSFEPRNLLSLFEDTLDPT
test method notes: Test for binding to ATP binding site of MYT1 (Kinase Tracer 178 / Eu-Anti-GST antibody TR-FRET)
condition details: ATP binding site of MYT1, 30 minutes at room temperature
reported property: IC50 (nM)

Illustrative cases are given below, each with its answer.
Nc1c(-c2ccc(F)c3[nH]ncc23)c2cc(OC3CCOCC3)c3ncccc3c2[nH]c1=O : 1.2
N#Cc1cc2[nH]c(=O)c(N)c(-c3ccc(Cl)c4[nH]ncc34)c2cc1Cl : 29
Nc1c(-c2ccc(F)c3[nH]ncc23)c2cc(OCC3CC3)c3nccnc3c2[nH]c1=O : 2.5
Nc1c(-c2cc(F)c(F)c3[nH]ncc23)c2cc(C3CC3)c3ncccc3c2[nH]c1=O : 6
CC(=O)c1cc2c(-c3ccc(F)c4[nH]ncc34)c(N)c(=O)[nH]c2c2cccnc12 : 2.4

1: Nc1c(-c2ccc3nc[nH]c3c2)c2cc(Cl)ccc2[nH]c1=O
2: Nc1c(-c2ccc(F)c3[nH]ncc23)c2cc(C3CCC(=O)CC3)c3ncccc3c2[nH]c1=O
3: Nc1c(-c2ccc(F)c3[nH]ncc23)c2cc(C3CC3)c3ncsc3c2[nH]c1=O
4: CC#Cc1cc2c(-c3ccc(F)c4[nH]ncc34)c(N)c(=O)[nH]c2c2cccnc12
5: Nc1c(-c2ccc(C(F)(F)F)c3[nH]ncc23)c2cc(Cl)ccc2[nH]c1=O
q: Sort by IC50, descending. Hello, could you send the labels back in the order asked? Thank you.
a: 1, 5, 3, 4, 2

----------
target entity: MYT1 protein (Homo sapiens (Human))
test method notes: Test for binding to ATP binding site of MYT1 (Kinase Tracer 178 / Eu-Anti-GST antibody TR-FRET)
condition details: ATP binding site of MYT1, 30 minutes at room temperature
pIC50: −log10 of the molar value.
reported property: pIC50

CC(C)Nc1cc2c(-c3ccc(F)c4[nH]ncc34)c(N)c(=O)[nH]c2c2ncccc12 : 8.15
Nc1c(-c2cc(F)c(F)c3[nH]ncc23)c2cc(OC(F)(F)F)c3ncccc3c2[nH]c1=O : 8.21
Nc1c(-c2cccc3[nH]ncc23)c2cc(C3CC3)c3ncccc3c2[nH]c1=O : 8.55
Nc1c(-c2ccc(F)c3[nH]ncc23)c2cc(OC(F)F)c3ncccc3c2[nH]c1=O : 8.55
Nc1c(-c2ccc(Cl)c3[nH]ncc23)c2cc(OCCCF)c(Cl)cc2[nH]c1=O : 8.68
CC(=O)Nc1cc2c(-c3ccc(F)c4[nH]ncc34)c(N)c(=O)[nH]c2c2nccnc12 : 8.85
Nc1c(-c2ccc(F)c3[nH]ncc23)c2cc(N3CCC(F)(F)C3)c3cccnc3c2[nH]c1=O : 8.00
CC(C)(C)OC(=O)N1CC(c2cc3c(-c4ccc(F)c5[nH]ncc45)c(N)c(=O)[nH]c3c3cccnc23)C1 : 7.66
CCc1cc2[nH]c(=O)c(N)c(-c3ccc(Cl)c4[nH]ncc34)c2cc1Cl : 7.33
Nc1c(-c2ccc(F)c3[nH]ncc23)c2cc(C3CNC3)c3cccnc3c2[nH]c1=O : 8.77

1: Nc1c(-c2ccc(F)c3[nH]ncc23)c2cc(N3CCC(N4CCOCC4)CC3)c3ncccc3c2[nH]c1=O
2: N#Cc1cc2c(-c3ccc(F)c4[nH]ncc34)c(N)c(=O)[nH]c2c2cccnc12
q: Would you mind telling me which has the lower recorded pIC50 between 1 and 2 ? Write the label of whichever entry you select.
a: 2

a: COc1cc2c(-c3cc(F)c(F)c4[nH]ncc34)c(N)c(=O)[nH]c2c2cccnc12
b: Nc1c(-c2ccc(Cl)c3[nH]ncc23)c2cc(OCC3(F)CC3)c(F)cc2[nH]c1=O
c: Cc1cc2c(nn1)c(Br)cc1c(-c3ccc(F)c4[nH]ncc34)c(N)c(=O)[nH]c12
q: Sort by pIC50, descending. Hello, could you send the labels back in the order asked? Thank you.
a: a, b, c
(a: 8.49, b: 7.02, c: 6.43)
